# TEST_DETAILS: APR_HepG2_CellCycleArrest_24hr: Apredica 24-hour HepG2 Assay for Cell Cycle Arrest (AID 2282905);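 note: cell cycle arrest scored as ratio of 2N to 4N nuclear DNA content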
# CONDITION_SUMMARY: imaging, actives raise or lower the signal
Activity calls are given as the source filed them. Rule for the calls: active = hit-call score of the fitted dose curve at least 0.9, where 1 is the maximum; inactive = score below 0.9.
The categories you may choose from are active, inactive

Previously resolved entries follow.
COP(=O)(OC)OC(Br)C(Cl)(Cl)Br (configuration not stated)    inactive
CC(Oc1cccc(Cl)c1)C(=O)O (configuration not stated)    inactive
O=C(O)c1cc(Oc2ccc(C(F)(F)F)cc2Cl)ccc1[N+](=O)[O-]    inactive

Write down the call the test reported for this molecule. Item: CC(C)N(C(=O)SCC(Cl)=C(Cl)Cl)C(C)C
inactive

Check the results log: what was the call for CSc1nc(NC(C)C)nc(NC(C)C)n1 ?
inactive

Assay result, entry CCCCOC(=O)c1ccccc1C(=O)O — outcome?
inactive

For CCCOc1nn(C(=O)NS(=O)(=O)c2ccccc2C(=O)OC)c(=O)n1C , which call appears in the assay record?
inactive

Per the records of this test, what outcome belongs to CCOC(=O)CC(SP(=O)(OC)OC)C(=O)OCC (configuration not stated) ?
inactive
